- testedTarget: T1, human TF extracellular domain protein (TF-ECD, Met 1-Glu 251) (human, UniProt P13726 33-251)
- T1 construct: range 1-251; also called human TF-ECD; not shown: His tag (protein captured on an NTA sensor as 'FDYKSD-01-His')
- procedureText: ForteBio OCTET R2; His-tagged antigen on NTA sensor, nanobody-Fc 25-1.56 nM in solution, 25°C
parameterMeasured: pKd
The read-out pKd is expressed as -log10 of concentration in moles per litre.

INPUT: Provide measured pKd value, entry: 4-A02-FC1 (chimeric nanobody: 4-A02 VHH fused with human Fc mutant fragment FC1) (Fc fusion, VHH-Fc fusion expressed in HEK293; also called chimeric antibody 4-A02) QVQLVESGGGLVQPGGSLSLSCTASETISSTYIMGWHRRSPGKERELVAVISGDGVTHYADFVKGRFVISRDNAKNAVYLKMNFLTPEDTAVYYCYAAGRWNHWGQGTQVTVSSEPKSSDKTHTCPPCPAPEFEGGPSVFLFPPKPKDTLMISRTPEVTCVVVDVSHEDPEVKFNWYVDGVEVHNAKTKPREEQYNSTYRVVSVLTVLHQDWLNGKEYKCKVSNKALPASIEKTISKAKGQPREPQVYTLPPSRDELTKNQVSLTCLVKGFYPSDIAVEWESNGQPENNYKTTPPVLDSDGSFFLYSKLTVDKSRWQQGNVFSCSVMHEALHNHYTQKSLSLSPGK
OUTPUT: 8.68
